Reference for the values: patent US7585859B2

IC50 by entry:
Biological target: PDE4B: The catalytic domain of human PDE4B from S152-S528 (Homo sapiens, UniProt Q07343)
Construct: His6 (N); thrombin cleavage site (N); made in house; host or cells: E. coli
Sequence (Q07343 with tags, fused parts or gaps): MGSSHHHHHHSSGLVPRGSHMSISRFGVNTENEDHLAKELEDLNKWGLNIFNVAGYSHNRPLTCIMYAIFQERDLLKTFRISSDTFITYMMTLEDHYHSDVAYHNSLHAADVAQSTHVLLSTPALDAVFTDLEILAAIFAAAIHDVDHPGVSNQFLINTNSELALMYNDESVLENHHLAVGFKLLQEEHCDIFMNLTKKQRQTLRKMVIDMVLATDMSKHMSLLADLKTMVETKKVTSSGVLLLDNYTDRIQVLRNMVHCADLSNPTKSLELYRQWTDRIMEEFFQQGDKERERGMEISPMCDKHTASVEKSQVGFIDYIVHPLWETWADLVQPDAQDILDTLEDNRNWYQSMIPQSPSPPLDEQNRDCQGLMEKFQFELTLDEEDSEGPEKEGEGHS
Test: PDE4 IC50 determination by Scintillation Proximity Assay, PDE4B
Assay type: biochemical
Conditions: Table 1B, Formula I compounds; read-out: IC50 PDE4B

| compound | IC50 |
| --- | --- |
| COc1ccc(Nc2sc(C(=O)c3ccccc3Cl)c(N)c2C#N)cc1 [Compound 1-110] | < 10 µM |
| Nc1c(C(=O)c2cc(-c3ccccc3)no2)sc(NC2CCCC2)c1C(=O)O [Compound 1-237] | < 10 µM |
| Cc1nc(-c2cnccn2)sc1C(=O)c1sc(NC2CCCC2)c(C(N)=O)c1N [Compound 1-252] | < 10 µM |

Fill in the blank: the reported IC50 of CCOC(=O)c1cc(C(=O)c2sc(NC3CCCC3)c(C#N)c2N)on1 [Compound 1-139] is ____.
< 10 µM

Fill in the blank: the reported IC50 of N#Cc1c(Nc2ccccc2)sc(C(=O)c2ccc(-c3ccccc3)cc2)c1N [Compound 1-34] is ____.
< 10 µM

Fill in the blank: the reported IC50 of CCOC(=O)c1c(Nc2ccccc2OC)sc(C(=O)c2ccc(Br)cc2)c1N [Compound 1-1] is ____.
< 10 µM

Fill in the blank: the reported IC50 of COC(=O)C(CCSC)Nc1sc(C(=O)c2ccccc2Cl)c(N)c1C#N (stereo not drawn) [Compound 1-112] is ____.
< 10 µM

Fill in the blank: the reported IC50 of CCNC(=O)c1cc(C(=O)c2sc(NC3CCCC3)c(C#N)c2N)on1 [Compound 1-198] is ____.
< 10 µM

Fill in the blank: the reported IC50 of COc1ccc(C(=O)c2sc(NC3CCOC3=O)c(C#N)c2N)c(OC)c1 (stereo not drawn) [Compound 1-44] is ____.
< 10 µM

Fill in the blank: the reported IC50 of N#Cc1c(Nc2ccccc2)sc(C(=O)c2ccccc2)c1N [Compound 1-16] is ____.
< 10 µM

Fill in the blank: the reported IC50 of N#Cc1c(NC2CCCC2)sc(C(=O)C2CC2)c1N [Compound 1-179] is ____.
< 10 µM

Fill in the blank: the reported IC50 of COC(=O)C(CCSC)Nc1sc(C(=O)c2cccc(Cl)c2)c(N)c1C#N (stereo not drawn) [Compound 1-156] is ____.
< 10 µM

Fill in the blank: the reported IC50 of Cc1ccc(C(=O)c2sc(Nc3ccc4c(c3)CCC4)c(C#N)c2N)c(C)c1 [Compound 1-157] is ____.
< 10 µM

Fill in the blank: the reported IC50 of COc1cccc(CNc2sc(C(=O)c3cc(-c4ccccc4)no3)c(N)c2C#N)c1 [Compound 1-216] is ____.
> 10 µM

Fill in the blank: the reported IC50 of N#Cc1c(NC2CCCC2)sc(C(=O)c2cc(C(=O)NC3CC3)no2)c1N [Compound 1-190] is ____.
< 10 µM

Fill in the blank: the reported IC50 of Cc1ccc(C(=O)c2sc(NC(=O)c3ccccc3C)c(C#N)c2N)c(C)c1 [Compound 1-86] is ____.
< 10 µM

Fill in the blank: the reported IC50 of N#Cc1c(NCCN2CCCCC2)sc(C(=O)c2ccccc2Cl)c1N [Compound 1-46] is ____.
> 10 µM

Fill in the blank: the reported IC50 of COc1ccc(OC)c(C(=O)c2sc(Nc3ccc(C(=O)NC4CCOC4=O)cc3)c(C#N)c2N)c1 (stereo not drawn) [Compound 1-97] is ____.
> 10 µM

====

Target: full-length human PDE4B2 isozyme (Homo sapiens, UniProt Q07343)
Construct: The full-length human PDE4B2 isozyme; His6 (N); TEV cleavage site (N); made in house; host or cells: baculovirus infected insect cells (unpurified lysate)
Sequence (Q07343 1-564 isoform Q07343-2): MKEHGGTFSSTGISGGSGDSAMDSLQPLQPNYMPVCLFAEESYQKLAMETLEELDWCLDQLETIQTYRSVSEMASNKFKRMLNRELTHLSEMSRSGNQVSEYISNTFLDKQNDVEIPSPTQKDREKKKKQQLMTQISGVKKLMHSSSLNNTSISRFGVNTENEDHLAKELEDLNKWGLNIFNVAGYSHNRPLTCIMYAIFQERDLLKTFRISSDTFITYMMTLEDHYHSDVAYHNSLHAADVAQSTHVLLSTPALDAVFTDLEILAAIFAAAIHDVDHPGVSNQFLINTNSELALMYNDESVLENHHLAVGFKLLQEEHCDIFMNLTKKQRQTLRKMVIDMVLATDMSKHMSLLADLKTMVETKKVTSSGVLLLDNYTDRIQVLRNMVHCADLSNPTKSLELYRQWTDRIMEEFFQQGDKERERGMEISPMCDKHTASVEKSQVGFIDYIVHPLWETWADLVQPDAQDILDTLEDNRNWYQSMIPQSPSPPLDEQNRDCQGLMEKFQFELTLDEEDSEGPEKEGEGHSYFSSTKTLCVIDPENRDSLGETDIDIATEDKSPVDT
Test: PDE4 IC50 determination by Scintillation Proximity Assay, PDE4B2
Type: biochemical
Conditions: Table 1B, Formula I compounds; read-out: IC50 PDE4B2
measuredEndpoint: IC50

| compound | targetSystem | IC50 |
| --- | --- | --- |
| N#Cc1c(Nc2ccc(Cl)cc2)sc(C(=O)c2ccc(Cl)cc2Cl)c1N | full-length human PDE4B2 isozyme (Homo sapiens, UniProt Q07343) | < 10 µM |
| CCNC(=O)c1cc(C(=O)c2sc(NC3CCCC3)c(C#N)c2N)on1 | full-length human PDE4B2 isozyme (Homo sapiens, UniProt Q07343) | > 10 µM |
| CCOC(=O)c1c(NC2CCCC2)sc(C(=O)c2ccc(OC)cc2)c1N | full-length human PDE4B2 isozyme (Homo sapiens, UniProt Q07343) | < 10 µM |

Form field - read-out: IC50; system: full-length human PDE4B2 isozyme (Homo sapiens, UniProt Q07343); submitted item: CCOC(=O)c1c(Nc2ccccc2OC)sc(C(=O)c2ccccc2)c1N
< 10 µM

Form field - read-out: IC50; system: full-length human PDE4B2 isozyme (Homo sapiens, UniProt Q07343); submitted item: Cc1c(C(=O)c2sc(NCC3CCCO3)c(C#N)c2N)cnn1-c1ccccc1 (centres unmarked)
> 10 µM

====

Target: full-length human PDE4B2 isozyme (Homo sapiens)
Construct: The full-length human PDE4B2 isozyme; His6 (N); TEV cleavage site (N); made in house; host or cells: baculovirus infected insect cells (unpurified lysate)
Assay: PDE4 IC50 determination by Scintillation Proximity Assay, PDE4B2
Type: biochemical
Settings: Table 1B, Formula I compounds; read-out: IC50 PDE4B2
pIC50: −log10 of the molar value.
measuredEndpoint: pIC50

Fill in the blank: the reported pIC50 of N#Cc1c(NC2CCCC2)sc(C(=O)c2cc(-c3ccc(Cl)cc3Cl)no2)c1N [Compound 1-227] is ____.
< 5.00

Fill in the blank: the reported pIC50 of CSc1cccc(Nc2sc(C(=O)c3cc(-c4ccccc4)no3)c(N)c2C#N)c1 [Compound 1-181] is ____.
> 5.00

Fill in the blank: the reported pIC50 of COC(=O)c1ccccc1Nc1sc(C(=O)c2c(-c3ccccc3)noc2C)c(N)c1C#N [Compound 1-130] is ____.
> 5.00

Fill in the blank: the reported pIC50 of N#Cc1c(Nc2ccc(Oc3ccccc3)cc2)sc(C(=O)c2cc(-c3ccccc3)no2)c1N [Compound 1-187] is ____.
< 5.00

Fill in the blank: the reported pIC50 of CC(C)Nc1sc(C(=O)c2cc(-c3ccccc3)no2)c(N)c1C#N [Compound 1-205] is ____.
< 5.00

====

Biological target: full-length human PDE4B2 isozyme (Homo sapiens)
Construct: The full-length human PDE4B2 isozyme; His6 (N); TEV cleavage site (N); made in house; host or cells: baculovirus infected insect cells (unpurified lysate)
Assay: PDE4 IC50 determination by Scintillation Proximity Assay, PDE4B2
Type: biochemical
Details: Table 1B, Formula I compounds; read-out: IC50 PDE4B2
pIC50: −log10 of the molar value.
measuredEndpoint: pIC50

Illustrative cases are given below, each with its answer.
| compound | pIC50 |
| --- | --- |
| Cc1c(C(=O)c2sc(Nc3cccc(C#N)c3)c(C#N)c2N)cnn1-c1ccccc1 | > 5.00 |
| CCOC(=O)c1c(NC2CCCC2)sc(C(=O)c2cc(-c3ccccc3)no2)c1N | < 5.00 |
| N#Cc1c(NC2CCCC2)sc(C(=O)c2cc(-c3ccc(Cl)cc3)no2)c1N | > 5.00 |

Fill in the blank: the reported pIC50 of CC(C)CNc1sc(C(=O)c2cc(-c3ccc(N)cc3)no2)c(N)c1C(N)=O is ____.
> 5.00

Fill in the blank: the reported pIC50 of CC(C)C(C)Nc1sc(C(=O)c2cc(-c3ccc(Cl)c(Cl)c3)no2)c(N)c1C(N)=O (centres unmarked) is ____.
> 5.00

Fill in the blank: the reported pIC50 of N#Cc1c(Nc2ccc(Cl)cc2)sc(C(=O)c2sccc2Cl)c1N is ____.
> 5.00

Fill in the blank: the reported pIC50 of N#Cc1c(NCCN2CCCCC2)sc(C(=O)c2cc(-c3ccc(Cl)cc3Cl)no2)c1N is ____.
< 5.00

Fill in the blank: the reported pIC50 of CC(C)CNc1sc(C(=O)c2cc(-c3ccccc3)no2)c(N)c1C(N)=O is ____.
> 5.00

====

Target: PDE4D (Homo sapiens, UniProt Q08499)
Construct: PDE4D: The catalytic domain of human PDE4B from S3 16-V692; His6 (N); thrombin cleavage site (N); made in house; host or cells: E. coli
Sequence (Q08499 380-756): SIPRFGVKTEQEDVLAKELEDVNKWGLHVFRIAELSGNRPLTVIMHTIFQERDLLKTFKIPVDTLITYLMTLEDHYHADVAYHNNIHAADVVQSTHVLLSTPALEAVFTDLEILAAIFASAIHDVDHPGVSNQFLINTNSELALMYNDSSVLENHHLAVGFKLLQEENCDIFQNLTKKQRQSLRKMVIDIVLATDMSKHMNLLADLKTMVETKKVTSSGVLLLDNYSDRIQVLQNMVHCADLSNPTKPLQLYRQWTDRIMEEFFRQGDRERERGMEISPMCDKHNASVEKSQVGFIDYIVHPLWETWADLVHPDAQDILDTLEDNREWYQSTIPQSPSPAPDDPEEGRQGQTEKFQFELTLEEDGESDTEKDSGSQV
Test: PDE4 IC50 determination by Scintillation Proximity Assay, PDE4D
Type: biochemical
Conditions: first part of Table 2B (2-1 to 2-22); read-out: IC 50 vs. indicated assay PDE4D
pIC50: −log10 of the molar value.
measuredEndpoint: pIC50

Illustrative cases are given below, each with its answer.
| structureString | pIC50 |
| --- | --- |
| CC(C)CNc1nc(N)c(C(=O)c2cc(-c3ccc(Cl)cc3)no2)s1 | > 5.00 |
| CC(C)Nc1nc(N)c(C(=O)c2cc(-c3ccc(Cl)cc3)no2)s1 | > 5.00 |

Fill in the blank: the reported pIC50 of CCOC(=O)c1cc(C(=O)c2sc(Nc3ccc(OC)cc3)nc2N)on1 is ____.
> 5.00
